Reported values of growth for individual entries
- Test system: MDA-MB-231 breast
- method: NCI-60 one-dose screen, 48 h (100 = growth as untreated, 0 = no growth, -100 = all killed)
- settings: 10 µM unless noted
The panel holds about 83,000 compounds, 20% with a hit somewhere; the sample as a whole holds those more often.
Report the value in % with no unit label.

[[record]]
compound = "COC(=O)c1cc(-c2cccs2)c(C#N)c(N)c1C#N"
numeric_result = 94.3

[[record]]
compound = "O=C(CN1CCOCC1)Nc1ccc(-c2nc3ccccc3s2)cc1"
numeric_result = 96.8

[[record]]
compound = "CCOC(=O)/C=C\\C(=O)NC(N)=O"
numeric_result = 103

[[record]]
compound = "COC(=O)c1ccc2nc(-c3cc4ccccc4n3C)n(CCCCOc3cc4c(cc3OC)C(=O)N3CCC[C@H]3C=N4)c2c1"
numeric_result = -14.7

[[record]]
compound = "COc1ccc(Cl)cc1NC(N)=S"
numeric_result = 104

[[record]]
compound = "CC(=O)OC[Si](C)(C)c1ccccc1"
numeric_result = 105

[[record]]
compound = "CCC1=C[C@@H]2CN(C1)Cc1c([nH]c3ccccc13)[C@@](C(=O)OC)(c1cc3c(cc1OC)N(C=O)[C@H]1[C@@](O)(C(=O)OC)[C@H](OC(C)=O)[C@]4(CC)[C@@H]5C[C@@H]5CN5CC[C@]31[C@@H]54)C2"
numeric_result = -24

[[record]]
compound = "CC1Cc2c(N(C)C)ncnc2N(C)c2ccc(O)cc21 (stereo unspecified)"
numeric_result = 87.2

[[record]]
compound = "CCCCCCCCCCCCCCCCC(Br)C(=O)O (stereo unspecified)"
numeric_result = 115

[[record]]
compound = "CC(=O)n1cc([C@H]2CC[C@H](c3cn(C(C)=O)c4ccccc34)c3c2[nH]c2ccccc32)c2ccccc21"
numeric_result = 70.8


QUERY: GET /values?readout=growth&item= "CCN(C(=O)c1cc2ccccc2[nH]1)[C@H]1CCC[C@@H](NCc2ccc(OC)cc2)C1"
RESULT: 90.4

QUERY: What value of measured growth is listed for "O=C(/C=C/CN1CCOCC1)Nc1cc2c(Nc3ccc(F)c(Cl)c3F)ncnc2cc1OCCOC(F)F" ?
RESULT: 33.8

QUERY: What measured growth goes with COc1ccc(C2=CC(c3ccc(Oc4ccnc5cc(Cl)ccc45)c(OC)c3)c3c(nc(OC)[nH]c3=O)N2)cc1 (stereo unspecified) ?
RESULT: 75.2

QUERY: For the compound "COC(=O)CC/C(C)=N\Nc1ccc([N+](=O)[O-])cc1" , what growth is on record?
RESULT: 79.6

QUERY: Sample "COc1ccc2c(c1)NC(=O)CN2c1nc(NC2CC2)nc2ccccc12" — what was its growth?
RESULT: 14.9

---

- Test system: NCI-H322M lung
- method: NCI-60 one-dose screen, 48 h (100 = growth as untreated, 0 = no growth, -100 = all killed)
- settings: 10 µM unless noted
About 83,000 compounds went through this panel and 20% of them were active in at least one assay; those are over-represented in the sample as a whole. Calls of active or inactive are those of the source. The calls were made as follows: active = growth percent below 10; inactive = the rest.
Catalogue of compounds with associated growth

Below: 3 compounds and their reported growth.
[[record]]
compound = "COc1cc(C2C3=C(COC3=O)Nc3c2ccc2c3CCCC2)cc2c1OCO2 (stereo not given)"
assay_target = "NCI-H322M lung"
property_name = "growth"
result = "47% (inactive)"

[[record]]
compound = "O=C(Nc1ccc(Br)c(Cl)c1)c1cc(F)ccc1O"
assay_target = "NCI-H322M lung"
property_name = "growth"
result = "9.4% (active)"

[[record]]
compound = "COc1cc(Cn2c(SCC(=O)Nc3ccc(Cl)cc3)nc3ccccc3c2=O)cc(OC)c1OC"
assay_target = "NCI-H322M lung"
property_name = "growth"
result = "64.4% (inactive)"


QUERY: Hello, I am looking for reported growth with NCI-H322M lung for "CC/C(=C(\c1ccc(O)cc1)c1ccc(OCCN(C)CCN(C)C(=O)CCC(=O)c2c(C)[nH]c(/C=C3\N=C(c4ccc[nH]4)C=C3OC)c2C)cc1)c1ccccc1" . Could you help?
RESULT: 70.4% (inactive)

QUERY: Record lookup: for NCI-H322M lung, what growth belongs to COC1=CC(c2ccc[nH]2)=N/C1=C\c1[nH]c(C)c(CCCn2cc(CCCCCCCCC[C@@H]3Cc4cc(O)ccc4C4CC[C@]5(C)[C@@H](O)CC[C@H]5C43)nn2)c1C (stereo not given in full) ?
RESULT: 44.6% (inactive)

---

- Tested on: COLO 205 colon
- method: NCI-60 one-dose screen, 48 h (100 = growth as untreated, 0 = no growth, -100 = all killed)
- settings: 10 µM unless noted
The panel holds about 83,000 compounds, 20% with a hit somewhere; the sample as a whole holds those more often.
Please enter met where growth is greater than or equal to 50%, and not met where it is lower.

Worked cases, answers included:
[[record]]
molecule = "COc1cc(OC)cc(-c2n[nH]nc2-c2ccc3c(c2)OCO3)c1"
assay_target = "COLO 205 colon"
class_name = "not met"

[[record]]
molecule = "CCC(=O)Nc1ccccc1C#C/C=C\\C#Cc1ccccc1SC"
assay_target = "COLO 205 colon"
class_name = "met"

[[record]]
molecule = "COc1ccc(-c2nc3sccn3c2-c2ccnc(NCCCNS(=O)(=O)c3ccc(C)cc3)n2)cc1"
assay_target = "COLO 205 colon"
class_name = "not met"

[[record]]
molecule = "Oc1ccc(Cl)cc1-c1cc(-c2ccc(Cl)cc2)n[nH]1"
assay_target = "COLO 205 colon"
class_name = "met"

[[record]]
molecule = "CCOc1ccc(/C=C/C=N/NC(N)=S)cc1"
assay_target = "COLO 205 colon"
class_name = "met"

[[record]]
molecule = "COC(=O)[C@H]1[C@H](OC)[C@@H](OC(=O)/C=C/c2ccncc2)CC2CN3CCc4c([nH]c5cc(OC)ccc45)[C@@H]3C[C@@H]21 (stereo partly specified)"
assay_target = "COLO 205 colon"
class_name = "met"

[[record]]
molecule = "CCCCCCCCCCC/C=C\\C[C@H](O)C/C=C1/C(=O)C=C[C@@H]1C/C=C\\CCCC(=O)OC"
assay_target = "COLO 205 colon"
class_name = "not met"

[[record]]
molecule = "CCN1C(=O)N(CC)C2C1NN=c1s/c(=C\\c3ccccn3)c(=O)n12 (stereo unspecified)"
assay_target = "COLO 205 colon"
class_name = "not met"


QUERY: Would you say "CSc1nc(-c2cc3ccccc3o2)cc(-c2ccc(Cl)cc2)c1C#N" shows growth at minimum 50%?
RESULT: not met

QUERY: # bool: growth of "CN(C)CCCNC(=O)C(c1ccccc1)c1ccccc1" >= 50%
RESULT: met

QUERY: Confirm if growth reported for the molecule CC1Cc2c(N(C)C)ncnc2N(C)c2ccc(O)cc21 (stereo unspecified) is 50% or above.
RESULT: met

QUERY: Quick check, growth >= 50%? O=[N+]([O-])c1cc(S(=O)(=O)OCC2CO2)ccc1Cl (stereo unspecified)
RESULT: met

QUERY: Evaluate NC(CC(N)C(=O)O)C(=O)O (stereo unspecified) : growth at minimum 50%?
RESULT: met

QUERY: Given "O=C(CSc1nc(-c2ccc(Cl)cc2)cn1-c1ccc(Cl)cc1)c1ccc(Br)cc1" , state whether its growth is at least 50%.
RESULT: met

QUERY: Reported growth reaches at least 50% for C#CCN1C(=O)/C(=c2\sc3n(c2=O)C2C(NN=3)N(CC)C(=O)N2CC)c2ccccc21 (stereo unspecified) ?
RESULT: not met

QUERY: Does "N=C(N)c1ccc(-c2ccc(-c3ccc(Cl)cc3)o2)nc1" have a reported growth of at least 50%?
RESULT: not met

QUERY: Hello, I need to know if "Clc1ccc([I+]c2ccc(Cl)cc2Cl)c(Cl)c1" has measured growth not below 50%. Thanks!
RESULT: not met

QUERY: State whether the measured growth reaches 50%, counting equality as reaching it, for Nc1c(C(=O)Nc2cccc([N+](=O)[O-])c2)sc2nc3c(cc12)C(O)CCC3 (stereo unspecified)
RESULT: not met

QUERY: Form field: growth at least 50%? Entry: "O=C(CNc1ccc(Cl)cc1)Nc1ccc(-c2nc3ccccc3s2)cc1"
RESULT: not met

QUERY: Quick check, growth >= 50%? "COc1ncc(-c2ccc3ncnc(Nc4cccc(Cl)c4)c3c2)cc1NS(=O)(=O)C1CC1"
RESULT: not met

---

- System: UO-31 renal
- method: NCI-60 one-dose screen, 48 h
- settings: 10 µM unless noted
About 83,000 compounds went through this panel and 20% of them were active in at least one assay; those are over-represented in the sample as a whole. Calls of active or inactive are those of the source. Rule for the calls: active = growth percent below 10; inactive = the rest.
The reply should name one outcome from active, inactive

// below: answered molecules
[[record]]
molecule = "COc1cc(CCn2nnc3c(Nc4ccc(N5CCOCC5)cc4)ncnc32)cc(OC)c1"
class_name = "inactive"

[[record]]
molecule = "O=S=Nc1ccc([N+](=O)[O-])cc1"
class_name = "inactive"


QUERY: Test call for this molecule, please: "COc1ccc(/C=C/C(=O)/C=C/c2cc3ccc(Cl)cc3[nH]c2=O)cc1"
RESULT: inactive
